- System: RXRa DBDmut IVT, anti-RXR (DBD mutation: RXRa K156A/R161A, NR concentration 90 nM)
- Assay Overview: PBM binding z-score (relative to random genomic background probes); higher = stronger binding; sequences stand for … in GC…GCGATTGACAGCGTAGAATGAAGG

| Chain Sequence | PBM binding z-score |
| --- | --- |
| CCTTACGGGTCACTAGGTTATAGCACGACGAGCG | 1.22 |
| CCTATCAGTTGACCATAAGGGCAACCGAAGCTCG | 0.139 |
| GATACAGGTTCAAGGCCAGAGTACGCGTATTGAT | 3.5 |
| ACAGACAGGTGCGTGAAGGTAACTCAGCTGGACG | -0.249 |
| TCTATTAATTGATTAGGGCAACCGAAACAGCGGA | 0.717 |
| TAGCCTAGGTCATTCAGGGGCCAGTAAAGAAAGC | 1.5 |
| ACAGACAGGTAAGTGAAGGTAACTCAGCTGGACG | -0.281 |

* * *

Item-by-item account of PBM binding z-score
- System: VDR homodimer (NR concentration 270 nM)
- Assay Overview: PBM binding z-score (relative to random genomic background probes); higher = stronger binding; sequences stand for … in GC…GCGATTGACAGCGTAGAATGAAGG
Measure Name: PBM binding z-score

| Chain Sequence | Measure Name | Result |
| --- | --- | --- |
| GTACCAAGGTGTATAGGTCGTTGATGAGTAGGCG | PBM binding z-score | 0.945 |
| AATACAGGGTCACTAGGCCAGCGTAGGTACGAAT | PBM binding z-score | 2.28 |
| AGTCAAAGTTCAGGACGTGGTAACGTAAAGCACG | PBM binding z-score | 1.49 |
| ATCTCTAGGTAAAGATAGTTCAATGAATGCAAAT | PBM binding z-score | 1.15 |
| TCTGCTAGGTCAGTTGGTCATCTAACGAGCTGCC | PBM binding z-score | -0.506 |
| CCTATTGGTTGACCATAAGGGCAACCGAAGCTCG | PBM binding z-score | -0.166 |
| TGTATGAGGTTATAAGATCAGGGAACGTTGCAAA | PBM binding z-score | 0.837 |
| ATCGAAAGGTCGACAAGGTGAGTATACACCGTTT | PBM binding z-score | 0.835 |
| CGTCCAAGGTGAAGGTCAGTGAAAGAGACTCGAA | PBM binding z-score | 0.389 |
| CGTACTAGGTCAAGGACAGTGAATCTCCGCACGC | PBM binding z-score | 0.444 |
| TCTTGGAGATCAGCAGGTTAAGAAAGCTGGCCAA | PBM binding z-score | -0.225 |
| CCTACTGGGCTAAGGTCATTGATCAGTCAAAGCA | PBM binding z-score | 2.94 |
| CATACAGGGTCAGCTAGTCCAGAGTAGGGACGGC | PBM binding z-score | 1.68 |
| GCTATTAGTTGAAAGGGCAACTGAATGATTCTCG | PBM binding z-score | 0.256 |
| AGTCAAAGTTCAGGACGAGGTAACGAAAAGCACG | PBM binding z-score | 2.11 |
| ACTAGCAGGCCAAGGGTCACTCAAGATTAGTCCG | PBM binding z-score | 1.29 |
| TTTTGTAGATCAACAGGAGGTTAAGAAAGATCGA | PBM binding z-score | 0.336 |
| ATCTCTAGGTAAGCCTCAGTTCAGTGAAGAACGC | PBM binding z-score | 1.21 |

* * *

- System: VDR:RXRa (NR concentration 270 nM, RXRa partner concentration 90 nM)
- Assay Overview: PBM binding z-score (relative to random genomic background probes); higher = stronger binding; sequences stand for … in GC…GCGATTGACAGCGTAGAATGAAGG

| Chain Sequence | PBM binding z-score |
| --- | --- |
| ACTATTAGTTGACTTAGGGCAACTGATACGACGC | 0.239 |
| ATATGTAGGCTACATCCGGGTCATTCAGGCTATG | 2.92 |
| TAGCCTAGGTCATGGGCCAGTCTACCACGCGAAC | 1.82 |
| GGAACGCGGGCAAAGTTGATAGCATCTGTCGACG | -0.564 |
| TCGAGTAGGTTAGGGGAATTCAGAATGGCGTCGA | -0.154 |
| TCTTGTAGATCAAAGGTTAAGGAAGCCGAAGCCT | 1.59 |
| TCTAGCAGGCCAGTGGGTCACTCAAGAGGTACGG | 0.297 |
| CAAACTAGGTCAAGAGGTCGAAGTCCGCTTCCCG | 4.04 |
| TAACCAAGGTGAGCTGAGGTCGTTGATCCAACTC | 4.26 |
| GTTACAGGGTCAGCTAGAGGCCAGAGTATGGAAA | 3.39 |
| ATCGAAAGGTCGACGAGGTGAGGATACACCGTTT | 5.19 |
| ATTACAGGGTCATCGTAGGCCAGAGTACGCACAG | 5.39 |
| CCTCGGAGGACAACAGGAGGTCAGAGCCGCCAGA | 1.58 |
| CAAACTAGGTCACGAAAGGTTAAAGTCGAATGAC | 5.27 |
| CGAACTAAGTCAGAACAGGACAGTGAAGGATGAT | -0.25 |
| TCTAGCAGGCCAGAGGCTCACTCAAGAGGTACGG | -0.485 |
| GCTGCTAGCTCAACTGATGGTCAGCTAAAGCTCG | -0.797 |
| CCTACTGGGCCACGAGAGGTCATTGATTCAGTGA | 4.45 |
| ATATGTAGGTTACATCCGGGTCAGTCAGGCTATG | 2.62 |
| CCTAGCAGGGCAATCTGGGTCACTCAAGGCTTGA | 1.08 |
| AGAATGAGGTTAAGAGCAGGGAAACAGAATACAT | 0.967 |
| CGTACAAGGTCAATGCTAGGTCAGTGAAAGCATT | 5.24 |
| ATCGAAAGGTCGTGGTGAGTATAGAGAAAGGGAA | 3.85 |
| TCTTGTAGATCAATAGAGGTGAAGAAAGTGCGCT | 0.991 |
| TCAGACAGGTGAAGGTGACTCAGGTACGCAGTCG | 1.04 |
| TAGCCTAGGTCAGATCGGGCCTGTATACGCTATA | 0.0712 |
| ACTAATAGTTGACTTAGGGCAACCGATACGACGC | 0.357 |
| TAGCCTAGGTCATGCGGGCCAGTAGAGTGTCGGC | 2.95 |
| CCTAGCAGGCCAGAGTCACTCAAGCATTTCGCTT | -0.665 |
| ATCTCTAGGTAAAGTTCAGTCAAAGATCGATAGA | 1.96 |
| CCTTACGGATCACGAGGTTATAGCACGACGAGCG | 1.05 |
| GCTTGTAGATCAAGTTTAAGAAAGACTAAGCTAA | -0.096 |
| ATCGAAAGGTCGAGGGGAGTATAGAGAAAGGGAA | 2.67 |
| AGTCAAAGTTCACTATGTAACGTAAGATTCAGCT | 3.89 |

* * *

- Test system: LXRb:RXRa (NR concentration 270 nM, RXRa partner concentration 90 nM)
- Assay Overview: PBM binding z-score (relative to random genomic background probes); higher = stronger binding; sequences stand for … in GC…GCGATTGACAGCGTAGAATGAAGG

| Chain Sequence | Assay System | PBM binding z-score |
| --- | --- | --- |
| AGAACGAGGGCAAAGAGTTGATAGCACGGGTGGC | LXRb:RXRa (NR concentration 270 nM, RXRa partner concentration 90 nM) | -0.152 |
| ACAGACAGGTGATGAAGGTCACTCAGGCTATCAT | LXRb:RXRa (NR concentration 270 nM, RXRa partner concentration 90 nM) | 1.96 |
| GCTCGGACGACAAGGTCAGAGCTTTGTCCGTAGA | LXRb:RXRa (NR concentration 270 nM, RXRa partner concentration 90 nM) | 0.912 |
| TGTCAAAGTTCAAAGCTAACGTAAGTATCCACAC | LXRb:RXRa (NR concentration 270 nM, RXRa partner concentration 90 nM) | 4.14 |
| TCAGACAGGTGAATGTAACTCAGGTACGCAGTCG | LXRb:RXRa (NR concentration 270 nM, RXRa partner concentration 90 nM) | 0.271 |
| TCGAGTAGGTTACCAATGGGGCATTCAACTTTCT | LXRb:RXRa (NR concentration 270 nM, RXRa partner concentration 90 nM) | 1.55 |

* * *

Item-by-item account of PBM binding z-score
- Test system: LXRb:RXRa (NR concentration 270 nM, RXRa partner concentration 90 nM)
- Assay Overview: PBM binding z-score (relative to random genomic background probes); higher = stronger binding; sequences stand for … in GC…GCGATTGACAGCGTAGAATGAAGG

| Chain Sequence | PBM binding z-score |
| --- | --- |
| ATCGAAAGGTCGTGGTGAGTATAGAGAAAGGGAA | 3.78 |
| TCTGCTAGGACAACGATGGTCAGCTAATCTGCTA | -0.773 |
| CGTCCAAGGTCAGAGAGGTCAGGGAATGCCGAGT | 4.51 |
| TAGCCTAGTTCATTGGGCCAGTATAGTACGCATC | 0.139 |
| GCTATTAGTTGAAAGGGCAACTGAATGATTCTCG | 1.1 |
| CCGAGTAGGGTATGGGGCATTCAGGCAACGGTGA | 0.261 |
| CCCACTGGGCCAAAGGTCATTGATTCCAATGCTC | 4.72 |
| CCTACTGGGCCAAGGTCATGGATCAGTCAAAGCA | 3.01 |
| ATCGAAAGGTCGACGAGGTAAGTATACACCGTTT | 2.62 |
| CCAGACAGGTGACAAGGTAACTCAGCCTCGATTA | -0.039 |
| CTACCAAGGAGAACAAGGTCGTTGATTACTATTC | 0.992 |
| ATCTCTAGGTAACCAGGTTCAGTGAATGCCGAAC | 0.528 |
| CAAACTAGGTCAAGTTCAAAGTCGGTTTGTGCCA | 3.64 |
| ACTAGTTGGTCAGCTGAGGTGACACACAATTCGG | 0.499 |
| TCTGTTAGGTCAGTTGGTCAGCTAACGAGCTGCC | 1.37 |
| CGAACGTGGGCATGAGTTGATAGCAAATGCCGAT | -0.998 |
| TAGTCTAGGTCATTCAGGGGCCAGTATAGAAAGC | 3.15 |
| TTACAAAGGTGAAGGTCGTTGATCCCTCTGTAGA | 2.33 |
| CCTCGGAGGACTGAAGGTCAGAGCTGTCCGCTTT | 0.745 |
| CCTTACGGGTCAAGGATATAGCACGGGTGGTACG | 2.45 |
| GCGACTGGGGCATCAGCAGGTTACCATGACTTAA | 0.309 |
| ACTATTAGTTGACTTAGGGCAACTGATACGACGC | 0.0522 |
| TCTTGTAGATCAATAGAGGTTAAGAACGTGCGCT | 1.46 |
